- target: Rhodesain (Trypanosoma brucei rhodesiense) (UniProt Q95PM0)
- Sequence (Q95PM0 1-450): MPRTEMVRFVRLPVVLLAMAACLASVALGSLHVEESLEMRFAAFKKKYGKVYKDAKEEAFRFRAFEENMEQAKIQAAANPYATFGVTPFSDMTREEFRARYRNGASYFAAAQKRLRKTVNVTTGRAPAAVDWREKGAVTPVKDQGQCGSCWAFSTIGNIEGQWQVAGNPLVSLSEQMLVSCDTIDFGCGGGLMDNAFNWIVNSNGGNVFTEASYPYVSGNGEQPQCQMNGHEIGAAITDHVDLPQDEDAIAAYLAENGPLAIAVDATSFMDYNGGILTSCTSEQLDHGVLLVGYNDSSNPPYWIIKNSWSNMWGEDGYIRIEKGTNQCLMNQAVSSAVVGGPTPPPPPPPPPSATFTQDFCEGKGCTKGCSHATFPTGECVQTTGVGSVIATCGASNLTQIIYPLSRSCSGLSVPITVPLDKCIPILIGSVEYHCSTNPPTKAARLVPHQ
- assay-details: Inhibition of Trypanosoma brucei rhodesiense rhodesain at 140 uM
The source made the active and inactive calls. No cut-off for these calls is given here.
parameter: inhibition

mol=CC(C)(C)OC(=O)NCC(=O)N1CCC[C@H](C(=O)N2[C@H](C(=O)O)[C@H]2C(=O)O)C1 result=inactive
mol=CC(C)C[C@H](NC(=O)OC(C)(C)C)C(=O)N1CCC[C@H](C(=O)N2[C@H](C(=O)O)[C@H]2C(=O)O)C1 result=inactive
mol=CC(C)C[C@H](NC(=O)OC(C)(C)C)C(=O)N1CCC[C@@H](C(=O)N2[C@H](C(=O)O)[C@H]2C(=O)O)C1 result=inactive
